- assay summary: Cytotoxicity against mouse AML-12 cells assessed as cell viability at 5 ug/ml after 24 hrs by MTT assay
- Format: cell-based
- condition context: read-out: Activity
outcome measure: viability at 24 h, 5 ug/ml

Data request, read-out viability at 24 h, 5 ug/ml, for "O=[N+]([O-])c1ccc(/C=N/NC2=NS(=O)(=O)c3ccccc3N2c2ccccc2)o1"
9%

* * *

We begin with a simple list: items and their reported zone of inhibition at 50 µg/mL.
- System: Klebsiella pneumoniae
- assay summary: Antibacterial activity against Klebsiella pneumoniae at 50 ug/ml after 18 hrs by cup plate method
- Type: functional
- condition context: read-out: DIZ
Provide the reading as a plain figure in mm.

Check out these entries, answers already filled in.
entry_smiles=O=C(O)c1cn(C2CC2)c2cc(N3CCNCC3)c(F)cc2c1=O unit_of_measure=mm observed_value=20
entry_smiles=CCN1C(N2CCN(Cc3ccc([N+](=O)[O-])o3)CC2)=NS(=O)(=O)c2ccccc21 unit_of_measure=mm observed_value=11
entry_smiles=CN1C(N2CCN(Cc3ccc([N+](=O)[O-])o3)CC2)=NS(=O)(=O)c2ccccc21 unit_of_measure=mm observed_value=10

Read the next record carefully.
Data request, read-out zone of inhibition at 50 µg/mL, for "CN[C@@H]1[C@H](O[C@H]2[C@H](O[C@H]3[C@H](O)[C@@H](O)[C@H](N=C(N)N)[C@@H](O)[C@@H]3N=C(N)N)O[C@@H](C)[C@]2(O)C=O)O[C@@H](CO)[C@H](O)[C@H]1O"
22
